pIC50: −log10 of the molar value.
Endpoint summary: pIC50, system: Protein kinase C theta type (Homo sapiens), multiple sources combined.
Quantity kind: pIC50

| Molecule | Quantity kind | Value observed |
| --- | --- | --- |
| COc1ccccc1-c1cnc2[nH]c(=O)n(C(C)C)c2n1 | pIC50 | < 4.52 |
| O=C1NC(=O)C(c2c[nH]c3ccsc23)=C1c1nc(N2CCN3C(=O)CCC3C2)nc2ccccc12 (stereo not shown) | pIC50 | 6.30 to 7.00 |
| O=C1NC(=O)C(c2c[nH]c3sccc23)=C1c1nc(N2CCC3(CCN3)CC2)nc2ccccc12 | pIC50 | > 7.00 |
| CC(c1ccccc1)n1c(=O)[nH]c2ncc(-c3cccc4cnccc34)nc21 (stereo not shown) | pIC50 | 4.70 to 5.00 |
| CN1CCN(c2nc(C3=C(c4c[nH]c5sccc45)C(=O)NC3=O)c3ccccc3n2)CC1(C)C | pIC50 | > 7.00 |
| O=c1[nH]c2ncc(-c3cccc4ncccc34)nc2n1C(c1ccccc1)c1ccccc1 | pIC50 | < 4.52 |
| CC1C[C@H](CNc2nc(Nc3ccc4c(c3)-n3nnnc3C(C)(C)O4)ncc2F)C(C)(C)N1 (stereo partly shown) | pIC50 | > 6.60 |
| CN1CCN(c2nc(C3=C(c4c[nH]c5sccc45)C(=O)NC3=O)c3c(F)cccc3n2)CC1 | pIC50 | > 7.00 |
| O=C1NC(=O)C(c2nc(N3CCN4CCC[C@@H]4C3)nc3cccc(F)c23)=C1c1c[nH]c2ccsc12 | pIC50 | > 7.00 |
| CN(C)[C@H]1CCN(c2nc(C3=C(c4c[nH]c5sccc45)C(=O)NC3=O)c3ccccc3n2)C[C@H]1F | pIC50 | 6.30 to 7.00 |

----------
Endpoint summary: IC50, system: Protein kinase C theta type (Homo sapiens), multiple sources combined.
Quantity kind: IC50

| Compound | System name | Value observed |
| --- | --- | --- |
| O=C(c1cccc(O)c1)c1c[nH]c2ncc(Nc3ccccc3)cc12 | Protein kinase C theta type (Homo sapiens) | ≤ 10000 nM |
| CCCOc1ccc(CN(C)C)cc1-c1cc2c(Nc3ccc4[nH]ccc4c3C)c(C#N)cnc2s1 | Protein kinase C theta type (Homo sapiens) | 93 nM |
| Cc1c(Nc2c(C#N)cnc3sc(-c4ccccc4)cc23)ccc2[nH]ccc12 | Protein kinase C theta type (Homo sapiens) | 28 nM |
| Cc1ccccc1C(=O)c1c[nH]c2nccc(-c3ccc(C(N)=O)cc3)c12 | Protein kinase C theta type (Homo sapiens) | ≤ 10000 nM |
| Cc1c(Nc2c(C#N)cnc3sc(-c4cc(CN(C)C)cc(OC(C)C)c4)cc23)ccc2[nH]ccc12 | Protein kinase C theta type (Homo sapiens) | 64 nM |
| CC(C1CCN(c2nc(C3=C(c4c[nH]c5sccc45)C(=O)NC3=O)c3ccccc3n2)CC1)N1CCCC1 (stereo not shown) | Protein kinase C theta type (Homo sapiens) | 500 to 1000 nM |
| Cc1c(Nc2c(C#N)cnc3sc(I)c(C)c23)ccc2[nH]ccc12 | Protein kinase C theta type (Homo sapiens) | 80 nM |
| Cc1ncc(C#N)c(Nc2ccc3[nH]ccc3c2C)c1-c1ccc(OCCN2CCCC2)cc1 | Protein kinase C theta type (Homo sapiens) | 25 nM |
| CC(c1ccccc1)n1c(=O)[nH]c2ncc(-c3ccc(S(C)(=O)=O)cc3)nc21 (stereo not shown) | Protein kinase C theta type (Homo sapiens) | > 30000 nM |
| O=C1NC(=O)C(c2c[nH]c3sccc23)=C1c1nc(N2CCC3(CC2)CNC3)nc2ccccc12 | Protein kinase C theta type (Homo sapiens) | 100 to 500 nM |
| CCN1CCC(Cn2nc(C3=C(c4c[nH]c5sccc45)C(=O)NC3=O)c3ccccc32)CC1 | Protein kinase C theta type (Homo sapiens) | 100 to 500 nM |
| Cc1nc2[nH]c(=O)n([C@H](C)c3ccccc3)c2nc1-c1cccc2ncccc12 | Protein kinase C theta type (Homo sapiens) | 5100 to 10000 nM |
| CN(C)CC1CCN(c2nc(C3=C(c4c[nH]c5sccc45)C(=O)NC3=O)c3ccccc3n2)C1 (stereo not shown) | Protein kinase C theta type (Homo sapiens) | 100 to 500 nM |

----------
Endpoint summary: IC50, system: Protein kinase C theta type (Homo sapiens), multiple sources combined.
Just a reminder that ties go to criterion not met: only IC50 strictly below 300 nM counts as criterion met.

| Molecule | System name | Group label |
| --- | --- | --- |
| CN1CCN(c2nc(C3=C(c4c[nH]c5ccsc45)C(=O)NC3=O)c3ccsc3n2)CC1 | Protein kinase C theta type (Homo sapiens) | criterion met |
| CC1(C)CC(Nc2nc(Nc3ccc4c(c3)-n3nnnc3C(C)(C)O4)ncc2F)CC(C)(C)N1 | Protein kinase C theta type (Homo sapiens) | criterion met |
| Cn1cnc2c1CN(c1nc(C3=C(c4c[nH]c5sccc45)C(=O)NC3=O)c3ccccc3n1)CC2 | Protein kinase C theta type (Homo sapiens) | criterion met |
| C[C@H](c1ccccc1)n1c(=O)[nH]c2ncc(-c3cccc4ncccc34)cc21 | Protein kinase C theta type (Homo sapiens) | criterion not met |
| Cc1c(Nc2c(C#N)cnc3sc(-c4cccc(C(C)N(C)C)c4)cc23)ccc2[nH]ccc12 (stereo not drawn) | Protein kinase C theta type (Homo sapiens) | criterion met |
| CN(C)C1CCN(c2nc(C3=C(c4c[nH]c5sccc45)C(=O)NC3=O)c3ccccc3n2)CC1CO (stereo not drawn) | Protein kinase C theta type (Homo sapiens) | criterion met |
| Cc1c(Nc2c(C#N)cnc3sc(/C=C/C(=O)NN4CCCC4)cc23)ccc2[nH]ccc12 | Protein kinase C theta type (Homo sapiens) | criterion not met |
| CN(C)Cc1cscc1-c1cc2c(Nc3ccc4[nH]ccc4c3)c(C#N)cnc2s1 | Protein kinase C theta type (Homo sapiens) | criterion met |
| CN1C(C)(C)CC(Nc2nc(Nc3ccc(N4CCCC4)c(C(F)(F)F)c3)ncc2F)CC1(C)C | Protein kinase C theta type (Homo sapiens) | criterion met |
| CNS(=O)(=O)c1ccc(-c2sc3ncc(C#N)c(Nc4ccc5[nH]ccc5c4)c3c2C)cc1 | Protein kinase C theta type (Homo sapiens) | criterion not met |
| COc1cc2ncc3c(N)nc(-c4cncc(O)c4)cc3c2cc1OC | Protein kinase C theta type (Homo sapiens) | criterion not met |
| COc1cc2ncc3c(N)nc(-c4cncc(OC[C@H](N)Cc5c[nH]c6ccccc56)c4)cc3c2cc1OC | Protein kinase C theta type (Homo sapiens) | criterion met |
| CN1C(=O)COc2cc(Nc3ncc(F)c(NC4CC(C)(C)N(C)C(C)(C)C4)n3)ccc21 | Protein kinase C theta type (Homo sapiens) | criterion met |

----------
Endpoint summary: IC50, system: Protein kinase C theta type (Homo sapiens), multiple sources combined.

| Molecule | System name | IC50 |
| --- | --- | --- |
| O=C1NC(=O)C(c2c[nH]c3sccc23)=C1c1nc(N2CCN3C(=O)OCC3C2)nc2ccccc12 (centres unmarked) | Protein kinase C theta type (Homo sapiens) | 500 to 1000 nM |
| Nc1cccc(-c2cnc3[nH]cc(C(=O)c4cccc(O)c4)c3c2)c1 | Protein kinase C theta type (Homo sapiens) | ≤ 10000 nM |
| Cc1c(Nc2c(C#N)cnc3sc(-c4ccccc4CNCCCO)cc23)ccc2[nH]ccc12 | Protein kinase C theta type (Homo sapiens) | 151 nM |
| O=C1NC(=O)C(c2c[nH]c3sccc23)=C1c1nc(N2CCC(CN3CCCC3)CC2)nc2ccccc12 | Protein kinase C theta type (Homo sapiens) | 100 to 500 nM |
| CN1CCN(C2CCN(c3nc(C4=C(c5c[nH]c6sccc56)C(=O)NC4=O)c4ccccc4n3)CC2)CC1 | Protein kinase C theta type (Homo sapiens) | < 100 nM |

----------
Endpoint summary: pIC50, system: Protein kinase C theta type (Homo sapiens, UniProt Q04759), multiple sources combined.
pIC50: −log10 of the molar value.
Quantity kind: pIC50

| Compound | Value observed |
| --- | --- |
| O=C(c1cccc(O)c1)c1c[nH]c2ncccc12 | ≥ 5.00 |
| CN1CCN(c2nc(C3=C(c4c[nH]c5sccc45)C(=O)NC3=O)c3ccccc3n2)CC1 | > 7.00 |
| CC(C)[C@H](CO)n1c(=O)[nH]c2ncc(-c3ccccc3)nc21 | < 4.52 |
| CC(C1CCN(C)CC1)n1nc(C2=C(c3c[nH]c4sccc34)C(=O)NC2=O)c2ccccc21 (stereo not drawn) | 6.00 to 6.30 |
| O=c1[nH]c2ncc(-c3cccc4ncccc34)nc2n1CC1CCCC1 | 4.70 to 5.00 |
| CN1CCN(c2nc(C3=C(c4c[nH]c5sccc45)C(=O)NC3=O)c3ccsc3n2)CC1 | > 7.00 |
